System: rodent lifetime carcinogenesis bioassay, tumor incidence TD50
Protocol text: carcinogenic potency in animals, long-term in vivo studies, CPDB compilation (AID 1745844)
Measurement context: rat; strain Wistar; males; in feed; site: kidney; lesion: several types; types named in the paper; dosed 47 weeks; study length 104 weeks
Recorded metric: TD50

Name the recorded TD50 of the item "O=[N+]([O-])c1ccc2c(c1)Cc1ccccc1-2" in your answer.
3 mg/kg/day

----------
Test system: rodent lifetime carcinogenesis bioassay, tumor incidence TD50
Protocol text: carcinogenic potency in animals, long-term in vivo studies, CPDB compilation (AID 1745844)
Measurement context: rat; strain Fischer 344; males; in feed; site: liver; lesion: hepatocellular carcinoma + neoplastic nodule; dosed 78 weeks; study length 105 weeks
I'd appreciate it if you could supply TD50 values for the items below.

>>> print(df.to_string())
         structure_smiles                           target_of_assay         result
0  O=Nc1ccc(Nc2ccccc2)cc1  rodent lifetime carcinogenesis bioassay, tumor incidence TD50  201 mg/kg/day

Answer with TD50 of "[O-]/[N+](=N\O)c1ccccc1" measured for rodent lifetime carcinogenesis bioassay, tumor incidence TD50.
9.28 mg/kg/day

----------
Test system: rodent lifetime carcinogenesis bioassay, tumor incidence TD50
Protocol text: carcinogenic potency in animals, long-term in vivo studies, CPDB compilation (AID 1745844)
Measurement context: rat; strain BD VI; females; by gavage; site: any site (literature study); lesion: several types; types named in the paper; dosed 72 weeks; study length 72 weeks
Recorded metric: TD50

Given the molecule "CN(N=O)c1ccccn1" , write its reported TD50.
0.28 mg/kg/day

----------
Tested on: rodent lifetime carcinogenesis bioassay, tumor incidence TD50
Protocol text: carcinogenic potency in animals, long-term in vivo studies, CPDB compilation (AID 1745844)
Measurement context: mouse; strain C3HeB/FeJ; females; in feed; site: ovary; lesion: tubular adenoma; dosed 104 weeks; study length 104 weeks
Recorded metric: TD50 (mg/kg/day)
Numbers only, in mg/kg/day.

Note down TD50 recorded for "CC/C(=C(/CC)c1ccc(O)cc1)c1ccc(O)cc1"
0.597

----------
Tested on: rodent lifetime carcinogenesis bioassay, tumor incidence TD50
Protocol text: carcinogenic potency in animals, long-term in vivo studies, CPDB compilation (AID 1745844)
Measurement context: rat; strain Sprague-Dawley; males; in feed; site: kidney; lesion: several types; types named in the paper; dosed 79 weeks; study length 79 weeks
Recorded metric: TD50

Please give the documented TD50 of "CC(=O)[O-].CC(=O)[O-].[OH-].[OH-].[OH-].[OH-].[Pb+2].[Pb+2].[Pb+2]"
266 mg/kg/day

----------
Exercise: for every item that follows, state its recorded TD50.
System: rodent lifetime carcinogenesis bioassay, tumor incidence TD50
Protocol text: carcinogenic potency in animals, long-term in vivo studies, CPDB compilation (AID 1745844)
Measurement context: rat; strain Fischer 344; males; in feed; site: liver; lesion: hepatocellular adenoma; dosed 104 weeks; study length 104 weeks
Activity calls are given as the source filed them. The rule behind the calls is not given here.

>>> df
                       compound                           target_of_assay         result
0  O=C(O)c1cc(=O)[nH]c(=O)[nH]1  rodent lifetime carcinogenesis bioassay, tumor incidence TD50  395 mg/kg/day

Okay, here is my list. What is TD50 for each of these?
1. ClC=CCCl
2. Nc1c(Cl)c(Cl)nc(C(=O)O)c1Cl
3. Nc1nc(N)c2nc(-c3ccccc3)c(N)nc2n1
4. Brc1cc(Br)c(-c2cc(Br)c(Br)cc2Br)cc1Br
5. CN(C)CCOC(C)(c1ccccc1)c1ccccn1 (stereo unspecified)

["100 mg/kg/day", "5560 mg/kg/day (inactive)", "11.8 mg/kg/day", "0.461 mg/kg/day", "3270 mg/kg/day"]
